target: skeletal myofibrils (myosin ATPase activity); assay: Skeletal Myofibril ATPase Assay; settings: PK-LDH coupled, absorbance at 340 nm
quantity: IC50

Given the molecule Cc1coc(Cn2nc(-c3ccc(OC(F)F)cc3)ccc2=O)n1 , what is its reported IC50?
10 to 100 µM

What would you report for O=c1ccc(-c2cnc(NC34CC(C3)C4)nc2)nn1Cc1cncc(F)c1 ?
< 10 µM

Then Nc1nnc(Cn2nc(-c3ccc(OC(F)F)cc3)ccc2=O)o1 ?
> 100 µM

What about O=c1ccc(-c2ccc(OC(F)F)nc2)nn1Cc1[nH]ncc1-c1ccccc1 ?
> 100 µM

Would you kindly repeat that for Cc1c(-c2ccccc2)noc1Cn1nc(-c2cnc(OCC(F)(F)F)nc2)ccc1=O ?
< 10 µM

Here is the next molecule: O=c1ccc(-c2cnc(OCC3(F)COC3)nc2)nn1Cc1nnc(-c2ccccc2)s1
< 10 µM

Lookup Cc1nc(Cn2nc(-c3cnc(OCC(F)(F)F)nc3)ccc2=O)co1
10 to 100 µM

Let us now turn to O=c1ccc(-c2cnc(OCC(F)(F)F)nc2)nn1Cc1nnc(-c2cccnc2)s1
< 10 µM

---

biological target: skeletal myofibrils (myosin ATPase activity); assay: Skeletal Myofibril ATPase Assay; details: PK-LDH coupled, absorbance at 340 nm
quantity: IC50

Please review the entries below; each comes with its answer.
IC50 lookup needed for Cc1noc(Cn2nc(-c3ccc4c(c3)OCCCO4)ccc2=O)n1 , thanks.
> 100 µM

And O=c1ccc(-c2ccc(OC(F)F)cc2)nn1Cc1nc2ccccc2o1 ?
< 10 µM

Next:
I am curious: what IC50 value has been reported for O=c1ccc(-c2ccc(OC(F)F)cc2)nn1Cc1cc(C2CC2)no1 ?
< 10 µM

Try this compound next: COc1ccc(-c2ccc(=O)n(Cc3nc(-c4ccccn4)no3)n2)cc1
10 to 100 µM

Subsequent entry: CC(C)(C)COc1ncc(-c2ccc(=O)n(Cc3cncc(F)c3)n2)cn1
< 10 µM

---

Listed below: pIC50 values for each entry.
biological target: skeletal myofibrils (myosin ATPase activity); assay: Skeletal Myofibril ATPase Assay; conditions: PK-LDH coupled, absorbance at 340 nm
pIC50: −log10 of the molar value.

Known pIC50 results, listed for orientation:
Which pIC50 value is on record for O=c1ccc(-c2cnc(OCCOC(F)(F)F)nc2)nn1Cc1cncc(F)c1 ?
> 5.00

Let us now turn to Cc1ccc(-c2noc(Cn3nc(-c4ccc(Cl)cc4)ccc3=O)n2)cc1
4.00 to 5.00

Param item: O=c1ccc(-c2ccc(OC(F)F)cc2)nn1Cc1nnc(-c2ccccc2)o1
4.00 to 5.00

Repeat for the following compound: CCCc1ncc(Cn2nc(-c3cnc(OCC(F)(F)F)nc3)ccc2=O)s1
> 5.00

Lab note: next compound to report on.
I have this compound here, O=c1ccc(-c2ccc(OC(F)F)nc2)nn1Cc1nnc(-c2ccccc2)s1 , and I need its recorded pIC50.
> 5.00

---

molecular target: skeletal myofibrils (myosin ATPase activity); experiment: Skeletal Myofibril ATPase Assay; type: biochemical; conditions: PK-LDH coupled, absorbance at 340 nm
pIC50: −log10 of the molar value.
Entries and their pIC50

pIC50 for O=c1ccc(-c2ccc(OC(F)F)cc2)nn1Cc1nnc(C2CC2)[nH]1 [Compound 228] ?
< 4.00

More entries:
Endpoint output: pIC50 of CCc1ncc(Cn2nc(-c3cnc(OCC(C)C)nc3)ccc2=O)s1 [Compound 124] . Value?
> 5.00

What do we get for O=c1ccc(-c2cnc(OCC3CC3)nc2)nn1Cc1cncc(F)c1 [Compound 119] ?
> 5.00

Next compound up: Cc1nc(Cn2nc(-c3ccc(Cl)cc3)ccc2=O)no1 [Compound 350]
< 4.00

Field entry: O=c1ccc(-c2cnc(OCc3cncc(F)c3)nc2)nn1Cc1cncc(F)c1 [Compound 107]
< 4.00

Okay, and [2H]C(C)(C)COc1ncc(-c2ccc(=O)n(Cc3cncc(F)c3)n2)cn1 [Compound 131] ?
> 5.00

And Cc1ncc(Cn2nc(-c3cnc(OCC(F)(F)F)nc3)ccc2=O)o1 [Compound 60] ?
> 5.00

Please answer likewise for Cc1nnc(Cn2nc(-c3ccc(OC(F)F)cc3)ccc2=O)o1 [Compound 222]
4.00 to 5.00

One more compound: COc1ncc(-c2ccc(=O)n(Cc3cncc(F)c3)n2)cn1 [Compound 69]
> 5.00

How about this compound: CSCOc1ncc(-c2ccc(=O)n(Cc3cncc(F)c3)n2)cn1 [Compound 108]
> 5.00

Entry O=c1ccc(-c2cnc(OCC(F)(F)F)nc2)nn1Cc1cc(F)c[n+]([O-])c1 [Compound 82] please
4.00 to 5.00

And the next one, O=c1ccc(-c2ccc(OC(F)F)nc2)nn1Cc1cncc(Cl)c1 [Compound 2] ?
> 5.00

Here is the next compound: O=c1ccc(-c2ccc(OC(F)F)nc2)nn1Cc1cncc(C(F)(F)F)c1 [Compound 76]
> 5.00

Queued: O=c1ccc(-c2ccc(OC(F)F)cc2)nn1Cc1nnc(C2CC2)s1 [Compound 217]
4.00 to 5.00

And what about the compound C/C=C\c1ncc(-c2ccc(=O)n(Cc3cncc(F)c3)n2)cn1 [Compound 352] ?
> 5.00

Try this compound too: COC(=O)c1ccc(Cn2nc(-c3ccc(SC)cc3)ccc2=O)o1 [Compound 302]
4.00 to 5.00

What do we get for COc1ccc(Cn2nc(-c3cnc(OCC(F)(F)F)nc3)ccc2=O)cn1 [Compound 132] ?
> 5.00

Thanks! And O=c1ccc(-c2cnc(OCC(F)(F)F)nc2)nn1Cc1ccc[n+]([O-])c1 [Compound 80] ?
< 4.00

Then what about the compound O=c1ccc(-c2ccc(OC(F)F)cc2)nn1Cc1nnc(C2CC2)o1 [Compound 219] ?
4.00 to 5.00

Moving on to CC[C@H](C)Oc1ncc(-c2ccc(=O)n(Cc3cncc(F)c3)n2)cn1 [Compound 120]
> 5.00

Then this compound: O=c1ccc(-c2ccc(OC(F)F)cc2)nn1Cc1nc(-c2ccccc2)co1 [Compound 237]
4.00 to 5.00

Repeat for the following compound: CC(C)(F)COc1ncc(-c2ccc(=O)n(Cc3cncc(F)c3)n2)cn1 [Compound 121]
> 5.00
